Origin of the recorded values: patent US20230056252A1

# pKd listing for each entry below
Experimental Target: T1, biotinylated CD3 epsilon:delta heterodimer protein (Amsbio AMS.CDD-H52WO) (Homo sapiens (Human), UniProt P07766 23-126; P04234 22-105)
T1 construct: also called CD3 heterodimer
Protocol: BLI (Octet), CD3 on SA sensor, Fab analyte;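 further: fab analyte at several concentrations up to 300 nM, association 100 s then 300 s dissociation in buffer, biosensors blocked with biocytin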
pKd: −log10 of the molar value.

# Binder, pKd
data = [
    ("huSP34.34.12 Fab-HF (Fab, V domains shown, also called HC34+LC12) VH: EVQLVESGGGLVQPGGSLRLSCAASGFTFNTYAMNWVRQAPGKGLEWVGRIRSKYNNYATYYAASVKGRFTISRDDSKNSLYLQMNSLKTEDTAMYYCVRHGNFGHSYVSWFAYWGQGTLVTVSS VL: QAVVTQPPSLTVSPGGTVTLTCGSSTGAVTTGHYANWVQQKPGQAPRGLIGGTNKRAPWTPARFSGSLSGGKAALTISGAQPEDEAEYYCALWYSNRWVFGGGTKLTVL", 8.09),
    ("huSP34.36.10 Fab-HF (Fab, V domains shown, also called HC36+LC10) VH: EVQLVESGGGLVQPGGSLRLSCAASGFTFNDYAMNWVRQAPGKGLEWVGRIRSKYNNYATYYAASVKGRFTISRDDSKNSLYLQMNSLKTEDTAMYYCVRHGNFGHSYVSWFAYWGQGTLVTVSS VL: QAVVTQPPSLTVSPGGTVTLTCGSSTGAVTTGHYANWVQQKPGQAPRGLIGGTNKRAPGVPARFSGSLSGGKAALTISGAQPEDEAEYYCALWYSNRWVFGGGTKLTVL", 8.24),
]
